target: human GLP-1 receptor (human, UniProt P43220 24-463); assay: cell-based or functional assay
Where no end group is shown, it is not given here. [ ]: non-standard residue; d: D form. Bip(2'-Et-4'-OMe) = CCc1cc(OC)ccc1-c1ccc(C[C@H](N)C(=O)O)cc1; αMePhe(2,6-F2) = C[C@](N)(Cc1c(F)cccc1F)C(=O)O; αMeBip(OMe) = alpha-methylated Bip(OMe); hhPhe = N[C@@H](CCCc1ccccc1)C(=O)O; αMeAPPA = not defined here; αMeS = C[C@](N)(CO)C(=O)O; Aib = CC(C)(N)C(=O)O
For each entry below, report its cAMP release, % activity with respect to control, at 1 nM value.

[[record]]
binder = "VH[Aib]EGT[αMePhe(2,6-F2)]TSD[Bip(2'-Et-4'-OMe)][αMeAPPA] (not fully specified (C-terminus); printed as VH-Aib-EGT-(αMe-2,6-diFPhe)-TSD-Bip(OMe)-(αMe-APPA); reading uncertain) [Seq. ID. No. 105]"
endpoint_result = "99 % of control"

[[record]]
binder = "VVH[Aib]QGTFTSD[αMeBip(OMe)][hhPhe] (not fully specified (C-terminus); printed as VVH-Aib-QGTFTSD-(αMe-Bip(OMe))-(APPA)) [Seq. ID. No. 207]"
endpoint_result = "39 % of control"

[[record]]
binder = "VHSEGT[αMePhe(2,6-F2)]T[αMeS]D[αMeBip(OMe)][αMeAPPA] (not fully specified (C-terminus); reading uncertain) [Seq. ID. No. 177]"
endpoint_result = "86 % of control"


Please turn your attention to the following entry.
cAMP release, % activity with respect to control, at 1 nM recorded for this binder, VHAEGTFTSD[Bip(2'-Et-4'-OMe)][αMeAPPA] (not fully specified (C-terminus); printed as VHAEGTFTSD-Bip(OMe)-(αMe-APPA); reading uncertain) [Seq. ID. No. 88] , is 38 % of control

All figures here come from patent US20120264685A1.
